B1: Lysozyme C, P61626 (parent)
chain: MKALIVLGLVLLSVTVQGKVFERCELARTLKRLGMDGYRGISLANWMCLAKWESGYNTRATNYNAGDRSTDYGIFQINSRYWCNDGKTPGAVNACHLSCSALLQDNIADAVACAKRVVRDPQGIRAWVAWRNRCQNRDVRQYVQGCGV

# Variants of: B1
# condition-label: Homo sapiens; pH 3.1; Thermal; DSC; glycine-HCl 0.05 M; reversible: yes; structure 1LZ1; whole UniProt chain shown
# Tm per entry
Entry rule: numbers only, all in °C.

The cases that follow already have their Tm on record.
mutation_label=T70V unit_of_measure=°C value_observed=68.7
mutation_label=T70A unit_of_measure=°C value_observed=68.9
mutation_label=T88V unit_of_measure=°C value_observed=70.3
mutation_label=T88A unit_of_measure=°C value_observed=67.1
mutation_label=T58V unit_of_measure=°C value_observed=68.7

Kindly review the next variant as well.
Return reported Tm; argument: "T58A"
68.6
